All figures here come from patent US7655801B2.

System: scopolamine induced deficit (dementia/amnesia) in mice
Test: Scopolamine induced amnesia, single trial passive avoidance test
Assay type: in vivo
Conditions: scopolamine treated mice; test compounds 20 μmol/kg orally, donepezil 10 mg/kg po, 1 hour prior to 2nd trial
Description: Single trial passive avoidance is widely used as experimental test to assess learning memory functions in rodents. Passive Avoidance Test (in vivo): Study was conducted in adult Swiss male mice of 3-4 months (wt. 20-25 g) which were kept in standard housing condition with 12 h light and dark cycle. Food and water were available ad libitum. […] Transfer of mice from bright to dark compartment was recorded as transfer latency time (TLT) in seconds. […]
Measured 2nd TRIAL (retention, after 24 hours) transfer latency time (TLT), listed per entry for reference.

CCCCCCNC(=O)Oc1ccc2c(c1)CCCN2Cc1ccccc1 [2h] ... 205 s
O=C(Nc1ccccc1Cl)Oc1ccc2ncccc2c1 [1c] ... 230 s

Now take the following molecule into account.
Reported 2nd TRIAL (retention, after 24 hours) transfer latency time (TLT) for COc1cc2c(cc1OC)C(=O)C(CC1CCN(Cc3ccccc3)CC1)C2 (stereo not drawn) [DONEPEZIL, donepezil, reference compound] : what is it? 245 s

###

Test system: scopolamine induced deficit (dementia/amnesia) in mice
Test: Scopolamine induced amnesia, single trial passive avoidance test
Format: in vivo
Settings: scopolamine treated mice; test compounds 20 μmol/kg orally, donepezil 10 mg/kg po, 1 hour prior to 2nd trial
Classification field: true (1) = 2nd TRIAL (retention, after 24 hours) transfer latency time (TLT) at or over 200 s; false (0) = 2nd TRIAL (retention, after 24 hours) transfer latency time (TLT) under 200 s.

Worked cases, answers included:
CN1CCCc2cc(OC(=O)Nc3ccc(Cl)c(C(F)(F)F)c3)ccc21 ... true (1)
CCCCCCCNC(=O)Oc1ccc2ncccc2c1 ... true (1)
CN1CCCc2cc(OC(=O)Nc3ccc(Br)cc3)ccc21 ... true (1)

We now examine a further compound.
Dear colleague, could you confirm whether `O=C(Nc1ccccc1Cl)Oc1ccc2c(c1)CCCN2Cc1ccccc1` has 2nd TRIAL (retention, after 24 hours) transfer latency time (TLT) at or above 200 s? false (0)
